biological target: hEP4 (Homo sapiens); assay: hEP4 binding (Ki); conditions: the 3rd table; read-out: EP4 data KI
Sequence (P35408 whole entry): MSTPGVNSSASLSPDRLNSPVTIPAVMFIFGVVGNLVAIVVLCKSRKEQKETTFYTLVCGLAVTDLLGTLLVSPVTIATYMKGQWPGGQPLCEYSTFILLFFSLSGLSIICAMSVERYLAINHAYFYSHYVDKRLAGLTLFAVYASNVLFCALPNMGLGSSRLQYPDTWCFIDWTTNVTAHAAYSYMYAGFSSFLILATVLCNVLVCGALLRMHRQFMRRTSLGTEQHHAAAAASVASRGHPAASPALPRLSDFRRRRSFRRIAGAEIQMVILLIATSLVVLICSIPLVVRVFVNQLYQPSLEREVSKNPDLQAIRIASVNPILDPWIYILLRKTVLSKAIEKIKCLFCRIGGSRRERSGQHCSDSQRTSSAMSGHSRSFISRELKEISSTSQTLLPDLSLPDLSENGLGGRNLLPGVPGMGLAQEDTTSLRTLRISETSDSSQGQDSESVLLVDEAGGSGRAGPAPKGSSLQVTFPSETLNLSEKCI
Readout label: Ki (nM)

- Substance smiles: "O=C(O)c1ccc(CCC[C@@H]2[C@@H](COc3cccc4c3CCCC4)[C@H](O)C[C@H]2Cl)s1"
  Unit info: "nM"
  Ki: 1460

1 = O=C(O)c1ccc(CCC[C@@H]2[C@@H](COc3cc(F)cc(C(F)(F)F)c3)[C@H](O)C[C@H]2Cl)s1
2 = O=C(O)c1ccc(CCC[C@@H]2[C@@H](COc3ccc4ccccc4c3)[C@H](O)C[C@H]2Cl)s1
3 = CCCCCCCc1ccc(OC[C@@H]2[C@@H](CCCc3ccc(C(=O)O)s3)[C@H](Cl)C[C@H]2O)cc1
Prompt: Arrange these compounds by their Ki, starting with the largest number. Order the labels as requested and give them as your answer.
Completion: 3, 1, 2
(3: 4520 nM, 1: 354 nM, 2: 227 nM)
